# Assay procedure: Food effect study, oral capsule, plasma PK in non-human primate
# Type: in vivo, Cynomolgus monkeys
# Measurement parameters: cynomolgus monkey, plasma, oral, 3 mg/kg, Group 2 (fed), 3 mg/kg, 2 h, N=3
Measure: concentration at 2 h (ng/mL)
Numbers only, in ng/mL.

Incoming: Returns the measured concentration at 2 h for the input compound. Input: Cc1cc(N2CCc3cc(F)ccc3C2)cc(C)c1NC(=O)CC(C)(C)C [Compound A]
Outgoing: 7.73

* * *

# Assay procedure: First-in-human SAD and MAD study, pharmacokinetics
# Assay type: in vivo
# Measurement parameters: human, plasma, oral, 25 mg, SAD, 25 mg fed, N=6, tLast 146 h, Mean ± SD; read-out: AUC0-t
Measure: AUC(0-t)

Incoming: AUC(0-t) for Cc1cc(N2CCc3cc(F)ccc3C2)cc(C)c1NC(=O)CC(C)(C)C ?
Outgoing: 1470 ng·h/mL

* * *

# Assay procedure: Food effect study, oral capsule, plasma PK in non-human primate
# Type: in vivo, Cynomolgus monkeys
# Measurement parameters: cynomolgus monkey, plasma, po, 3 mg/kg, Group 2 (fed), 3 mg/kg capsule, Mean; read-out: AUCinfobs
Measure: AUC(0-inf) (ng·h/mL)
Numbers only, in ng·h/mL.

Incoming: Would you kindly share the measured AUC(0-inf) for Cc1cc(N2CCc3cc(F)ccc3C2)cc(C)c1NC(=O)CC(C)(C)C ?
Outgoing: 1180

* * *

# Assay procedure: Food effect study, oral capsule, plasma PK in non-human primate
# Type: in vivo, Cynomolgus monkeys
# Measurement parameters: cynomolgus monkey, plasma, po, 3 mg/kg, fasted, 3 mg/kg oral, plasma, 4 h, individual animals; read-out: Concentration
Measure: concentration at 4 h (ng/mL)
Give bare numbers, in ng/mL.

Incoming: Param item = Cc1cc(N2CCc3cc(F)ccc3C2)cc(C)c1NC(=O)CC(C)(C)C ; retrieve measured concentration at 4 h.
Outgoing: 12.6

* * *

# Assay procedure: Food effect study, oral capsule, plasma PK in non-human primate
# Format: in vivo, Cynomolgus monkeys
# Measurement parameters: Cynomolgus, Vietnamese origin, cynomolgus monkey, plasma, po, 3 mg/kg, Group 1 (fasted), 3 mg/kg capsule, Mean; read-out: Cmax
Measure: Cmax

Incoming: # query: Cmax of entry Cc1cc(N2CCc3cc(F)ccc3C2)cc(C)c1NC(=O)CC(C)(C)C [Compound A]
Outgoing: 55.7 ng/mL

* * *

# Assay procedure: Food effect study, oral capsule, plasma PK in non-human primate
# Assay type: in vivo, Cynomolgus monkeys
# Measurement parameters: cynomolgus monkey, plasma, oral, 3 mg/kg, Group 2 (fed), 3 mg/kg, 12 h, N=3; read-out: Mean plasma concentration
Measure: concentration at 12 h
Answer by giving the amount and then stating its unit.

Incoming: Query: concentration at 12 h; subject: Cc1cc(N2CCc3cc(F)ccc3C2)cc(C)c1NC(=O)CC(C)(C)C
Outgoing: 52.8 ng/mL

* * *

# Assay procedure: TMS crossover study, pharmacokinetic analysis
# Format: in vivo, human
# Measurement parameters: male, human, plasma, oral, 20 mg, Full PK Profile Data Set (N=16), Range
# Description: A randomized, double-blind, placebo-controlled, transcranial magnetic stimulation (TMS) crossover study investigated the safety, tolerability, pharmacokinetics (PK), and pharmacodynamics (PD) of single doses of Compound A in healthy right-handed male subjects. […] The PK parameters for this study were summarized in two ways. Firstly, PK parameters were calculated where possible using the PK samples collected during each 24 h sampling period for Period 1 and Period 2 separately. […]
Measure: AUC(0-inf) (ng·h/mL)
One number for each entry, in ng·h/mL.

Incoming: Quick one: AUC(0-inf) of Cc1cc(N2CCc3cc(F)ccc3C2)cc(C)c1NC(=O)CC(C)(C)C [Compound A] ?
Outgoing: 1920

* * *

# Assay procedure: TMS crossover study, pharmacokinetic analysis
# Assay type: in vivo, human
# Measurement parameters: male, human, plasma, oral, 20 mg, Overall (N=20), Range; read-out: AUC0-24
Measure: AUC(0-t)

Incoming: Which AUC(0-t) reading was recorded for the molecule Cc1cc(N2CCc3cc(F)ccc3C2)cc(C)c1NC(=O)CC(C)(C)C [Compound A] ?
Outgoing: 358 to 951 ng·h/mL

* * *

# Assay procedure: Food effect study, oral capsule, plasma PK in non-human primate
# Format: in vivo, Cynomolgus monkeys
# Measurement parameters: cynomolgus monkey, plasma, oral, 3 mg/kg, Group 1 (fasted), 3 mg/kg, 1 h, N=3; read-out: Mean plasma concentration
Measure: concentration at 1 h (ng/mL)
Answers are plain numbers, in ng/mL.

Incoming: Request the reported concentration at 1 h associated with Cc1cc(N2CCc3cc(F)ccc3C2)cc(C)c1NC(=O)CC(C)(C)C [Compound A]
Outgoing: 6.89

* * *

# Assay procedure: Food effect study, oral capsule, plasma PK in non-human primate
# Assay type: in vivo, Cynomolgus monkeys
# Measurement parameters: cynomolgus monkey, plasma, po, 3 mg/kg, fasted, 3 mg/kg oral, plasma, 0 h, individual animals; read-out: Concentration
Measure: concentration at 0 h (ng/mL)
Numbers only, in ng/mL.

Incoming: Item Cc1cc(N2CCc3cc(F)ccc3C2)cc(C)c1NC(=O)CC(C)(C)C has what recorded concentration at 0 h?
Outgoing: 0

* * *

# Assay procedure: First-in-human SAD and MAD study, pharmacokinetics
# Type: in vivo
# Measurement parameters: human, plasma, oral, 25 mg, MAD, 25 mg QD Fed, Day 10, N=6, mean; read-out: AUC0-24
Measure: AUC(0-t) (ng·h/mL)
Give bare numbers, in ng·h/mL.

Incoming: Need AUC(0-t) of Cc1cc(N2CCc3cc(F)ccc3C2)cc(C)c1NC(=O)CC(C)(C)C , thanks.
Outgoing: 1720

* * *

# Assay procedure: First-in-human SAD and MAD study, pharmacokinetics
# Type: in vivo
# Measurement parameters: human, plasma, oral, 15 mg, MAD, 15 mg QD Fasted, Day 1, N=6, mean
Measure: Cmax
Provide the measurement as a number trailed by its unit.

Incoming: # lookup: Cmax of Cc1cc(N2CCc3cc(F)ccc3C2)cc(C)c1NC(=O)CC(C)(C)C
Outgoing: 10.5 ng/mL

* * *

# Assay procedure: TMS crossover study, pharmacokinetic analysis
# Assay type: in vivo, human
# Measurement parameters: male, human, plasma, oral, 20 mg, Full PK Profile Data Set (N=16), Range; read-out: AUClast
Measure: AUC(0-t) (ng·h/mL)
Numbers only, in ng·h/mL.

Incoming: Give its AUC(0-t) value. Item: Cc1cc(N2CCc3cc(F)ccc3C2)cc(C)c1NC(=O)CC(C)(C)C
Outgoing: 1580

* * *

# Assay procedure: Open-label randomized two-period fed/fasted crossover study, plasma PK
# Measurement parameters: both sexes, human, in vivo; fed, 20 mg oral, 3.0 h, individual subjects; read-out: Compound A Concentration
Measure: concentration at 3 h (ng/mL)
Answers are plain numbers, in ng/mL.

Incoming: Given Cc1cc(N2CCc3cc(F)ccc3C2)cc(C)c1NC(=O)CC(C)(C)C [Compound A] , state its recorded concentration at 3 h.
Outgoing: 104

* * *

# Assay procedure: First-in-human SAD and MAD study, pharmacokinetics
# Format: in vivo
# Measurement parameters: human, plasma, oral, 20 mg, SAD, 20 mg fasted, N=6, Mean ± SD
Measure: Cmax (ng/mL)
One number for each entry, in ng/mL.

Incoming: Quick one: Cmax of Cc1cc(N2CCc3cc(F)ccc3C2)cc(C)c1NC(=O)CC(C)(C)C ?
Outgoing: 31.5

* * *

# Assay procedure: Food effect study, oral capsule, plasma PK in non-human primate
# Type: in vivo, Cynomolgus monkeys
# Measurement parameters: cynomolgus monkey, plasma, oral, 3 mg/kg, Group 2 (fed), 3 mg/kg, 48 h, N=3
Measure: concentration at 48 h (ng/mL)
Numbers only, in ng/mL.

Incoming: Given the molecule Cc1cc(N2CCc3cc(F)ccc3C2)cc(C)c1NC(=O)CC(C)(C)C , what is its reported concentration at 48 h?
Outgoing: 11.6

* * *

# Assay procedure: TMS crossover study, pharmacokinetic analysis
# Type: in vivo, human
# Measurement parameters: male, human, plasma, oral, 20 mg, Full PK Profile (N=16), Mean ± SD; read-out: Cmax
Measure: Cmax (ng/mL)
Answers are plain numbers, in ng/mL.

Incoming: Consider the compound Cc1cc(N2CCc3cc(F)ccc3C2)cc(C)c1NC(=O)CC(C)(C)C and give its measured Cmax.
Outgoing: 60.1

* * *

# Assay procedure: Transcranial magnetic stimulation pilot study (RMT/AMT, TEPs, rEEG)
# Measurement parameters: male, human, in vivo, 10 mg
Measure: concentration at 4 h

Incoming: I'd like to know its concentration at 4 h. The molecule in question is Cc1cc(N2CCc3cc(F)ccc3C2)cc(C)c1NC(=O)CC(C)(C)C
Outgoing: 23.1 ng/mL

* * *

# Assay procedure: First-in-human SAD and MAD study, pharmacokinetics
# Format: in vivo
# Measurement parameters: human, plasma, oral, 15 mg, MAD, 15 mg Fed, Day 1, N=6, mean
Measure: Tmax (h)
Numbers only, in h.

Incoming: What does the data say about its Tmax? Entry: Cc1cc(N2CCc3cc(F)ccc3C2)cc(C)c1NC(=O)CC(C)(C)C [Compound A]
Outgoing: 4.37
